B1: TPR t1 (parent)
chain: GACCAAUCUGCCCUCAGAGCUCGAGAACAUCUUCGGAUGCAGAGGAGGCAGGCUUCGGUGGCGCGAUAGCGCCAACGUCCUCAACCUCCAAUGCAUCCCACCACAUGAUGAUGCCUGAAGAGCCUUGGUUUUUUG

# Variants of: B1
# assay notes: polymerase ribozyme fitness, log enrichment relative to wild type (log ratio); higher = more active; in vitro selection for triplet polymerase activity
Note to self: class = bucket of polymerase ribozyme fitness (log ratio), per group 1 (below -6), group 2 (-6 to below -4), group 3 (-4 or more)

Which polymerase ribozyme fitness (log ratio) band matches GACCAAUCUGCCCCCAGAGCUCGAGAACAUCUUCGUAUGCUGAGGAGGCAGGCUUCGGUGGCGCGAUAGCGCCAACGUCCUCAACCUCCAAUGCAUCCCACCACAUGAUGAUGCCUGAAGAGCCUUGGUUUUUUG [U14C G36U A41U] ? group 2

Hey, which category is GACCAAUCUGCCCUCAGAGCUCGAGAUCAUCUUCGGAUGCAGACGAGGCAGGCUUCGGUGGCGCGAUAGCGCCAACGUCCUCAACCUCCAAUGCACCCCACCACAUGAUGAUGCCUGAAGAGCCUUGGUUUUUUG [A27U G44C U96C] in, do you know? group 2

Class? Entry: GACCAAUUUGCCCUCAGAGCUCGAGACCAUCUUCGGAUGCAGAGGAGGCAGGCUUCGGUGGCCCGAUAGCGCCAACGUACUCAACCUCCAAUGCAUCCCACCACAUGAUGAUGCCUGAGGAGCCUUGGUUUUUUG [C8U A27C G63C C79A A119G] group 2

Into which bin does this variant go? GACCAAUCUGCCCUCAGAGCUCGAGAACAUCUUCGGAUGCAGAGGAGGCAGGCUUCCGUGGCGCGAUAGCGCCAACGUCCUCAACCUCCAAUGCAUCCCACCACAAGAUGAAGCCUGAAGAGCCUUGGUUUUUUG [G57C U106A U112A] group 3

Lab note: sort GACCAAUCUGCCCUCAGAGAUCGAGAACAUCUUCGGAUGCAGAGGAGGCAGGCUUCGGUGGCGCGAUAGUGCCAACGUCCUCAACCUCCAAUACAUCCCACCACAUGAUGAUCCCUGAAGAGCCUUGGUUUCUUG [C20A C70U G93A G113C U132C] into the matching polymerase ribozyme fitness (log ratio) band. group 1

Would you mind sorting GACCAAUCUGCCCUGAGAGCUCGAGAACAUCUUCGGAUGCAGAGGAGGCAGGCUUCGGUGGCGCGAUAGCGCAAACGUCCUCAACCUGCAAUGCAUCCCACCACAUGAUGAUGCCUGAAGAGCCUUGGUUUUUUG [C15G C73A C88G] into the appropriate category? group 3

Hey, which category is GACCAAUCUGCCUUCAGAGCUCGAGAACAUCUUCGGAUGCAGAGGAGGCAGGCUUCGGUGGCGCGAUAGCGCCAAGGUCCUCAAUCUCCAAUGCAUCCCACCAGAUGAUGAUGCCUGAAGAGCCUUGGUUUUUUG [C13U C76G C85U C104G] in, do you know? group 1

Quick check: band for GACCAAUCUGCCCUCAGAGCUCGAGAACAUCUUCGGAUGCAGAGGAGGCAGGCUUCGGUGGCGCGAUAGCGCUAACGUCCUCAACCUCCAAUGCAUCCCACCACAUGAUGAUGCCUCAAGAGCCUUGGUUUUUUG [C73U G117C] group 3

Kindly state the category for this variant: GACCAAUAGGCCCUCAGAGCUCGAGAACAUCUUCGGAUCCAGAGGAGGCAGGCUUCGGUGGCGCGAUAACGCCAACGCCCUCAACCUCCAAGGCAUCCCACCACAAGAUGAUGCCUGAAGAGCCUUGGUUUUUUG [C8A U9G G39C G69A U78C U92G U106A] group 1

Band for GACCAAUCUGCCCUCAGAGCUCGAGAACAUCUUCGGAUGCAGCGGAGGCAGGCUUCGGUGGCGCGAUAGCGUCAACGUCCUCAACCUCCAAUGCAUCCCUCCACAUGAUGAUGCCUGAAGAGCCUUGGUGUUUUG [A43C C72U A100U U130G] ? group 2
